# Assay system: Sialic acid-binding Ig-like lectin 9 (Homo sapiens) (UniProt Q9Y336)
# Sequence (Q9Y336 whole entry): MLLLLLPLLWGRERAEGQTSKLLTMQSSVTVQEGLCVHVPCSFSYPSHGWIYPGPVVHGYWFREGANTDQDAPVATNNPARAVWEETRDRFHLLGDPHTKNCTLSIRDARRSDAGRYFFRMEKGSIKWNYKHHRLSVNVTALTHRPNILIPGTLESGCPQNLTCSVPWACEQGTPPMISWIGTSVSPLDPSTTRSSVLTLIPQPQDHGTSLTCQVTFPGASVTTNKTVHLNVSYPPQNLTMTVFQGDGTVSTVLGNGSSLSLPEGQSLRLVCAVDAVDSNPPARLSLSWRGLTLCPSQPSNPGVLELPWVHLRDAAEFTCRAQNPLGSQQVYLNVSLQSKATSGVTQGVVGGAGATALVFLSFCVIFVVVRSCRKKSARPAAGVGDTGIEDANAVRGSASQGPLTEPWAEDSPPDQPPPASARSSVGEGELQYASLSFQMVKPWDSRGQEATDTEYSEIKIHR
# Measurement notes: Hs-Siglec9 ALPHAscreen SOP 20170721
# Parameters: scale not given: direction of the effect not stated beside the values
# Condition notes: 10 µM
Percent Effect listing for selected compounds.
All answers are understood in %, so give the number only.

Ask: State the recorded Percent Effect for this entry: c1ccc2sc(CN3CCOC(Cn4cncn4)C3)nc2c1 (configuration not stated)
Reply: -1.81

Ask: State the recorded Percent Effect for this entry: `O=C(N1CCCC1)N1CCO[C@H]2[C@@H](Oc3ccccn3)CC[C@@H]21`
Reply: -0.922

Ask: State the recorded Percent Effect for this entry: `Cc1ccc2cnn(CCC(=O)Nc3c(C)nn(C)c3C)c2c1`
Reply: 2.18

Ask: State the recorded Percent Effect for this entry: CN1N=C(C(=O)Nc2cc(F)ccc2OCC2CCCO2)CCC1=O (configuration not stated)
Reply: 2.24

Ask: State the recorded Percent Effect for this entry: Cc1ccc(N2CCCN(C(=O)C(C(C)C)n3cncn3)CC2)nn1 (configuration not stated)
Reply: 9.29

Ask: State the recorded Percent Effect for this entry: `O=C1CCCc2cc(-c3csc(CCN4CCOC4=O)n3)ccc2N1`
Reply: 11.1

Ask: State the recorded Percent Effect for this entry: O=C(C1CCCc2[nH]ncc21)N1CCCC1 (configuration not stated)
Reply: -7.51

Ask: State the recorded Percent Effect for this entry: c1ccc2c(N3CCCC3Cn3cccn3)ncnc2c1 (configuration not stated)
Reply: 6.84

---

# Assay system: AMP-activated protein kinase, AMPK (Homo sapiens) (UniProt P54646+O43741+P54619+Q9UGJ0+Q9Y478+Q13131+Q9UGI9)
# Measurement notes: AMP-dependent Kinase enzyme assay. An in vitro enzyme assay that detects ADP turnover that is directly proportional to AMPK activity. This uses naive AMPK that is activated during the assay with MK-8722
# Format: functional
# Set-up: scale not given: direction of the effect not stated beside the values
# Condition notes: 30 µM
Percent Effect listing for selected molecules.
Answer with the number, then the unit.

{"Molecule": "CC(O)CN1CCN(C(=O)CN(C)c2cnccn2)CC1 (stereo not drawn)", "Metric name": "Percent Effect", "Val": "-4.8%"}
{"Molecule": "c1ccc(CC2CCN(Cc3ccnc(-c4cccnc4)n3)CC2)cc1", "Metric name": "Percent Effect", "Val": "9.39%"}

Now, please, on to the next molecule.
Ask: State the recorded Percent Effect for this entry: `COc1cc(N2CC[C@H](O)[C@@H]2Cc2cnn(C)c2)ncn1`
Reply: 1.19%

---

# Assay system: Proteasome subunit beta (Trypanosoma cruzi) (UniProt O96673)
# Sequence (whole entry): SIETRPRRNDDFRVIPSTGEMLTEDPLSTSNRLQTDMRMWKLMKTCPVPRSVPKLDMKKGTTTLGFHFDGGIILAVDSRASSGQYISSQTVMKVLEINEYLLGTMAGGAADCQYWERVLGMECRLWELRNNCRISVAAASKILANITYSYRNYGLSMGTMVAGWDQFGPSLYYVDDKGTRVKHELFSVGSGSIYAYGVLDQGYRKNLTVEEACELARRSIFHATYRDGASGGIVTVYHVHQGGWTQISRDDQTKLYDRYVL
# Measurement notes: Trypanosoma cruzi proteasome chymotrypsin-like activity (TcProtChymo) assay. Also: in the data most compounds retested in dose-response had high values.
# Assay type: functional
# Parameters: scale not given: direction of the effect not stated beside the values
# Condition notes: 9.37 µM
Metric name: Percent Effect (%)
All answers are understood in %, so give the number only.

# annotated cases, reported Percent Effect shown
{"Molecule": "Cc1cc(C(=O)N2CCCC(n3cncn3)C2)c(C)n1C1CC1 (stereo not given)", "Assay system": "Proteasome subunit beta (Trypanosoma cruzi) (UniProt O96673)", "Percent Effect [%]": -1.54}
{"Molecule": "Cc1noc(C(C)N2CCN(CCC(=O)N3CCCCC3)CC2)n1 (stereo not given)", "Assay system": "Proteasome subunit beta (Trypanosoma cruzi) (UniProt O96673)", "Percent Effect [%]": 9.68}
{"Molecule": "COCC(C)(O)CNC(=O)COc1ccccc1OC (stereo not given)", "Assay system": "Proteasome subunit beta (Trypanosoma cruzi) (UniProt O96673)", "Percent Effect [%]": 8.52}
{"Molecule": "CC(COc1ccccc1)NCc1nc(-c2cccnc2)no1 (stereo not given)", "Assay system": "Proteasome subunit beta (Trypanosoma cruzi) (UniProt O96673)", "Percent Effect [%]": 6.14}

Ask: State the recorded Percent Effect for this entry: `O=C(c1cccnc1-n1cccn1)N1CCN(CC2CC2)CC1`
Reply: 13.1

---

Percent Effect listing for selected compounds.
# Species on record: Homo sapiens
# Measurement notes: To identify inhibition of the IFN signalling (Jak-Stat) pathway via expression of an eGFP reporter gene under the control of an IFN-stimulated response element (ISRE) containing MxA promoter.
# Assay type: functional
# Set-up: scale not given: direction of the effect not stated beside the values
# Condition notes: 30 µM
All answers are understood in %, so give the number only.

Ask: State the recorded Percent Effect for this entry: O=C(CCC1CCCO1)NCc1ccnc(-n2cccn2)c1 (stereo unspecified)
Reply: 10.6

Ask: State the recorded Percent Effect for this entry: CCOc1nnc(CN(C)C2CCCN(c3cccnn3)C2)s1 (stereo unspecified)
Reply: -12.4

Ask: State the recorded Percent Effect for this entry: Fc1ccc(CN2CCCC(c3nnc(-c4cnccn4)o3)C2)cc1F (stereo unspecified)
Reply: 1.34

Ask: State the recorded Percent Effect for this entry: CC(c1ccccc1)n1c(SCC(=O)O)nnc1-c1ccccc1Cl (stereo unspecified)
Reply: 13.3

Ask: State the recorded Percent Effect for this entry: CC(C)C(C(=O)N1CCN(Cc2ccncc2)CC1)n1cncn1 (stereo unspecified)
Reply: -1.24

Ask: State the recorded Percent Effect for this entry: Cc1nn(C)c(N(C)C)c1CNCC(O)COc1ccc(F)cc1 (stereo unspecified)
Reply: -14.5

Ask: State the recorded Percent Effect for this entry: Cn1c(Cn2cccn2)nnc1C1CCCN(c2ccncc2)C1 (stereo unspecified)
Reply: 11.9

Ask: State the recorded Percent Effect for this entry: CCC(C)(C)NC(=O)C1CC(=O)N(CC2CC2)C1 (stereo unspecified)
Reply: 17.7

Ask: State the recorded Percent Effect for this entry: `Cc1nc(CN2C[C@@H]3CN(C(=O)c4cnccn4)C[C@@H]3C2)cs1`
Reply: 7.67

---

# Assay system: Ubiquitin-activating enzyme e1, putative (Leishmania donovani (strain BPK282A1)) (UniProt E9BSI1)
# Sequence (E9BSI1 as listed by the source): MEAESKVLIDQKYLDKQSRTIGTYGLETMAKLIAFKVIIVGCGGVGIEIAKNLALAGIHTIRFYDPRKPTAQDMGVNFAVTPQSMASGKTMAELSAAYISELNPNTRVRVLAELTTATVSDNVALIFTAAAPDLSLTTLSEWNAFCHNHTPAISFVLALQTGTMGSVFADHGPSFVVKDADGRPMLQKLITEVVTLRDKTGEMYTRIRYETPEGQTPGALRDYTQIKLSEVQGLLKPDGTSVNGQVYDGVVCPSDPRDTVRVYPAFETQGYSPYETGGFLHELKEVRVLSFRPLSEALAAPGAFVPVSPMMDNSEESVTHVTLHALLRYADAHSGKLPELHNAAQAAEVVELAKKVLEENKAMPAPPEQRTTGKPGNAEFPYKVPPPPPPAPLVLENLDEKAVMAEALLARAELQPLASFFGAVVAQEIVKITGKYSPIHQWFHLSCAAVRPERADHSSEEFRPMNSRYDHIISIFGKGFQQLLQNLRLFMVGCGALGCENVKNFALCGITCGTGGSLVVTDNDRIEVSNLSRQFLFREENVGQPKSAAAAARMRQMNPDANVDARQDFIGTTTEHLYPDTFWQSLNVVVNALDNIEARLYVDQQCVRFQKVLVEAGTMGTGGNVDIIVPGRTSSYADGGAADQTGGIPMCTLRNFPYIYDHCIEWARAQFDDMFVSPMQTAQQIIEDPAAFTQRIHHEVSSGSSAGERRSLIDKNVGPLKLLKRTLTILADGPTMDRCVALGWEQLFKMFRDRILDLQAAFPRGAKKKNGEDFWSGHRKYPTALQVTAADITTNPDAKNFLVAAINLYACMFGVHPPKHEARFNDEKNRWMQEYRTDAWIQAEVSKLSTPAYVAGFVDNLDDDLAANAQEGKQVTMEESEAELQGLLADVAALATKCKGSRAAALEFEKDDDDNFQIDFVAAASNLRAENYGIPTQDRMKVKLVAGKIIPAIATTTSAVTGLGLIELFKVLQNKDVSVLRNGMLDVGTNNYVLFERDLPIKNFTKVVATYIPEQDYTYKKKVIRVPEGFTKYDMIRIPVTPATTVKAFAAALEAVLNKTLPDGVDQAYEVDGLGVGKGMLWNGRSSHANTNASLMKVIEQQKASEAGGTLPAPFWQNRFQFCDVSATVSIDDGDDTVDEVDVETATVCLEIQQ
# Measurement notes: Leishmania donovani Ubiquitin Activating Enzyme (LdE1)
# Type: functional
# Set-up: scale not given: direction of the effect not stated beside the values
# Condition notes: 30 µM
Measured potencies and affinities stand elsewhere.
Metric name: Percent Effect (%)
All answers are understood in %, so give the number only.

# annotated cases, reported Percent Effect shown
{"Compound": "Cc1noc2ncc(C(=O)N(CC3CCOC3)C3CC3)cc12 (stereo unspecified)", "Percent Effect [%]": 7.89}
{"Compound": "CCS(=O)(=O)N1CC[C@]2(C[C@@H](OCC3CC3)CO2)C1", "Percent Effect [%]": 5.41}
{"Compound": "CN(CCCC#N)C1CCCN(Cc2noc(C3CC3)n2)C1 (stereo unspecified)", "Percent Effect [%]": 15.3}
{"Compound": "COCCNc1ccc(CNC(=O)Nc2cn[nH]c2)cc1", "Percent Effect [%]": 20.2}
{"Compound": "O=C(c1cnccn1)N1CCN(Cc2csc(-c3ccccc3)n2)CC1", "Percent Effect [%]": -2.7}

Ask: State the recorded Percent Effect for this entry: `CC(C)Sc1nnc(CCNC(=O)OC(C)(C)C)o1`
Reply: 4

---

# Assay system: Arginase-2, mitochondrial (Homo sapiens) (UniProt P78540)
# Sequence (P78540 whole entry): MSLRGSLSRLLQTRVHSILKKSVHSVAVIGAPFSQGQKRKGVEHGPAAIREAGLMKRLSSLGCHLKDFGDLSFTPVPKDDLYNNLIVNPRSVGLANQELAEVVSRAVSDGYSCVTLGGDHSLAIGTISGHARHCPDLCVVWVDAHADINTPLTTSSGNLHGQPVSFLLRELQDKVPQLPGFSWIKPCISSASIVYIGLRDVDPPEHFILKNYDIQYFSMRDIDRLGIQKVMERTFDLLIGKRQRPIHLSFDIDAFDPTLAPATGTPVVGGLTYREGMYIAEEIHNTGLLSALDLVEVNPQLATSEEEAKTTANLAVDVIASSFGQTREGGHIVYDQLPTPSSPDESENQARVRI
# Measurement notes: in vitro enzyme assay to detect the production of urea directly proportional to the activity of Arginase II; also: in the data most compounds retested in dose-response had high values
# Type: functional
# Parameters: scale not given: direction of the effect not stated beside the values
# Condition notes: 33.3 µM
Metric name: Percent Effect (%)
All answers are understood in %, so give the number only.

{"Molecule": "O=C(c1cccnc1-n1cccn1)N1CCN(CC2CC2)CC1", "Percent Effect / %": -0.952}
{"Molecule": "Cn1ccc2c(C(=O)N3CCC(C(N)=O)CC3)cccc21", "Percent Effect / %": -9.68}
{"Molecule": "Cc1nc2cc(C(=O)N3CCCC(n4cncn4)C3)ccc2n1C (configuration not stated)", "Percent Effect / %": -0.924}
{"Molecule": "O=C(c1ccnnc1)N1C[C@@H](OCC2CCCC2)[C@H]2OCCC[C@H]21", "Percent Effect / %": 3.33}
{"Molecule": "COc1cccc(COCC(=O)N2CCCC(N3CCCC3)CC2)c1 (configuration not stated)", "Percent Effect / %": 0}

Now, please, on to the next molecule.
Ask: State the recorded Percent Effect for this entry: `COc1ccc(CN2CCn3cc(CN4CCN(C)CC4)nc3C2)cc1`
Reply: 4.78

---

# Assay system: Tyrosyl-tRNA synthetase, putative (Trypanosoma cruzi (strain CL Brener))
# Sequence (whole entry): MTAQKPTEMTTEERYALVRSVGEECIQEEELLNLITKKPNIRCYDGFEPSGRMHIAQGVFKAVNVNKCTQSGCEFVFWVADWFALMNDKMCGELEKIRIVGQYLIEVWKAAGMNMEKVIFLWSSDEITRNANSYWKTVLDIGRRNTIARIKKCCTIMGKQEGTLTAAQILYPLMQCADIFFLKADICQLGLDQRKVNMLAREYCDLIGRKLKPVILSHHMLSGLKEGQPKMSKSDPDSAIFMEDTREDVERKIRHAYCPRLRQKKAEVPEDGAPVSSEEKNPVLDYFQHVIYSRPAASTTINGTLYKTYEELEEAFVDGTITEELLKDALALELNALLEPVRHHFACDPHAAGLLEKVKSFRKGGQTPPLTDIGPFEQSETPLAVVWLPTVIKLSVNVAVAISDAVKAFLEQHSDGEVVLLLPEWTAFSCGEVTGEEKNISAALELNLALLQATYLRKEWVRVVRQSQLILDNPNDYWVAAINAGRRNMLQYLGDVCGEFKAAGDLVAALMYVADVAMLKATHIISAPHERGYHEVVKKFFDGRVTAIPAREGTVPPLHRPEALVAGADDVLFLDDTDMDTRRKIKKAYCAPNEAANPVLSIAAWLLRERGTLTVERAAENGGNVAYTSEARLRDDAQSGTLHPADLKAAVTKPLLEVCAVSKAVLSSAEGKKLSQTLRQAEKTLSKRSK
# Measurement notes: Trypanosoma cruzi tyrosyl tRNA synthetase (TcYRS) SOP
# Type: functional
# Design: scale not given: direction of the effect not stated beside the values
# Condition notes: 30 µM
Metric name: Percent Effect (%)
All answers are understood in %, so give the number only.

# annotated cases, reported Percent Effect shown
{"Compound": "CCCc1nnsc1C(=O)NCC1CCN(c2ccccn2)CC1", "Assay system": "Tyrosyl-tRNA synthetase, putative (Trypanosoma cruzi (strain CL Brener))", "Readout unit": "%", "Percent Effect": 20}
{"Compound": "O=C(c1ccc(Cl)c(Cl)c1)N1CCCC(n2cncn2)C1 (centres undefined)", "Assay system": "Tyrosyl-tRNA synthetase, putative (Trypanosoma cruzi (strain CL Brener))", "Readout unit": "%", "Percent Effect": 3.66}
{"Compound": "COc1cccc(C2CC(=O)Nc3nc(N4CCOCC4)sc32)c1OC (centres undefined)", "Assay system": "Tyrosyl-tRNA synthetase, putative (Trypanosoma cruzi (strain CL Brener))", "Readout unit": "%", "Percent Effect": 10.4}
{"Compound": "CS(=O)(=O)NCCC(=O)NC1CCc2nccn2C1 (centres undefined)", "Assay system": "Tyrosyl-tRNA synthetase, putative (Trypanosoma cruzi (strain CL Brener))", "Readout unit": "%", "Percent Effect": 11.1}

Ask: State the recorded Percent Effect for this entry: CN(CC1COc2ccccc2O1)C(=O)NCCCn1ccnc1 (centres undefined)
Reply: -7.32

Ask: State the recorded Percent Effect for this entry: `CCN1CCN(C2CCN(Cc3cc(C)on3)CC2)C1=O`
Reply: 8.86

Ask: State the recorded Percent Effect for this entry: `Cc1ccoc1C(=O)NC1CCN(Cc2csc3c(F)cccc23)CC1`
Reply: 10.1

Ask: State the recorded Percent Effect for this entry: `CC(=O)NCCNC(=O)c1cnc(-c2ccccc2)nc1`
Reply: 11.1

Ask: State the recorded Percent Effect for this entry: `Cn1cc(C[C@H]2[C@@H](O)CCN2C(=O)C2CC=CC2)cn1`
Reply: 14.1

Ask: State the recorded Percent Effect for this entry: CC(C)CN1CCC(c2nc3c([nH]2)CC(C)(C)CNC3=O)C1 (centres undefined)
Reply: 19.5

Ask: State the recorded Percent Effect for this entry: `O=C(NCCO)Nc1cccc(Cl)c1SC(F)F`
Reply: -15.4

Ask: State the recorded Percent Effect for this entry: `CCc1nnc2n1CCN(C(=O)c1ccc(C(F)(F)F)nc1C)C2`
Reply: 16.5
